Tested on: Rumex obtusifolius
ASSAY_PROCEDURE: Foliage treatment with different salts (Example 11)
Type: in vivo
Parameters: key: 0 indicates no effect; 5 indicates complete kill
CONDITION_NOTES: Rumex obtusifolius (Plant No. 14); 0.1%; 1000 liter per hectare
Structures can show the parent of a compound that is named as a salt.
VALUE_KIND: Damage to plants after 21 days, scale 0 to 5
Output: the number by itself.

[
  {
    "MOLECULE": "CC(C)CC(NC(=O)C(C)NC(=O)C(N)CCP(C)(=O)O)C(=O)O.CCCCN (centres unmarked) [Mono n-butylamine salt]",
    "MEASURED_VALUE": 5
  },
  {
    "MOLECULE": "CC(C)C[C@H](NC(=O)[C@H](C)NC(=O)[C@@H](N)CCP(C)(=O)O)C(=O)O [Phosalacine (Na salt)]",
    "MEASURED_VALUE": 5
  },
  {
    "MOLECULE": "CC(C)CC(NC(=O)C(C)NC(=O)C(N)CCP(C)(=O)O)C(=O)O.CC(C)N (centres unmarked) [Mono isopropylamine salt]",
    "MEASURED_VALUE": 5
  },
  {
    "MOLECULE": "CC(C)CC(NC(=O)C(C)NC(=O)C(N)CCP(C)(=O)[O-])C(=O)[O-].[K+].[K+] (centres unmarked) [Di Ka salt]",
    "MEASURED_VALUE": 5
  }
]

Now turn to the next molecule.
Enquiry: Recorded Damage to plants after 21 days, scale 0 to 5 for CC(C)CC(NC(=O)C(C)NC(=O)C(N)CCP(C)(=O)[O-])C(=O)[O-].[Na+].[Na+] (centres unmarked) [Di Na salt] , please?
Return: 5
